- Assayed Target: T1, ScChc-NTD Arrestin box mutant (Q195A, I197T, K251E) (Saccharomyces cerevisiae, UniProt P22137 1-369, Q195A | I197T | K251E)
- T1 construct: Clathrin heavy chain N-terminal domain, Saccharomyces cerevisiae, residues 1-369, Arrestin box mutant; also called Arr mutant
- T1 sequence (looked up): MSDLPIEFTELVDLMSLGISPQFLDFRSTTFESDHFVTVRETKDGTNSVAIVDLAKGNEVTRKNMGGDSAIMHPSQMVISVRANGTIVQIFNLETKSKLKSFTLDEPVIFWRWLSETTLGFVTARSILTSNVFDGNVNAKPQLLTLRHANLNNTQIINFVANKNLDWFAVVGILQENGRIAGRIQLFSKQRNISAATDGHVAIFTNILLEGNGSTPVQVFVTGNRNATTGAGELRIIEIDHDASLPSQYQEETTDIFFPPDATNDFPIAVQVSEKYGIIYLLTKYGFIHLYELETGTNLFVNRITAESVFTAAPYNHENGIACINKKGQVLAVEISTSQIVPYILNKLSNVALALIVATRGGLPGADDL
- Assay Method Text: nanoDSF thermal shift; ScChc-NTD mutants 10 µM with Ent1 or Ent2 peptide, thermal ramp up to 80 °C; apparent KD from the Tm shift model
- Particulars: both partners purified
Overview of reported Kd across a group of binders:

[
  {
    "Binder": "GVSLIDL (also called Ent2 peptide; source: synthetic peptide, bought: NovoProLabs) [Ent2 CBM peptide (GVSLIDL)]",
    "Kd": "~216 µM"
  }
]

Now examine the next entry.
For the binder GYTLIDL (also called Ent1 peptide; source: synthetic peptide, bought: NovoProLabs) [Ent1 CBM peptide (GYTLIDL)] , give its reported Kd.
~166 µM
